Where these numbers come from: ChEMBL document CHEMBL4706590

Test System: Protein cereblon/Androgen receptor (Homo sapiens, UniProt P10275+Q96SW2)
Sequence (P10275 whole entry, looked up): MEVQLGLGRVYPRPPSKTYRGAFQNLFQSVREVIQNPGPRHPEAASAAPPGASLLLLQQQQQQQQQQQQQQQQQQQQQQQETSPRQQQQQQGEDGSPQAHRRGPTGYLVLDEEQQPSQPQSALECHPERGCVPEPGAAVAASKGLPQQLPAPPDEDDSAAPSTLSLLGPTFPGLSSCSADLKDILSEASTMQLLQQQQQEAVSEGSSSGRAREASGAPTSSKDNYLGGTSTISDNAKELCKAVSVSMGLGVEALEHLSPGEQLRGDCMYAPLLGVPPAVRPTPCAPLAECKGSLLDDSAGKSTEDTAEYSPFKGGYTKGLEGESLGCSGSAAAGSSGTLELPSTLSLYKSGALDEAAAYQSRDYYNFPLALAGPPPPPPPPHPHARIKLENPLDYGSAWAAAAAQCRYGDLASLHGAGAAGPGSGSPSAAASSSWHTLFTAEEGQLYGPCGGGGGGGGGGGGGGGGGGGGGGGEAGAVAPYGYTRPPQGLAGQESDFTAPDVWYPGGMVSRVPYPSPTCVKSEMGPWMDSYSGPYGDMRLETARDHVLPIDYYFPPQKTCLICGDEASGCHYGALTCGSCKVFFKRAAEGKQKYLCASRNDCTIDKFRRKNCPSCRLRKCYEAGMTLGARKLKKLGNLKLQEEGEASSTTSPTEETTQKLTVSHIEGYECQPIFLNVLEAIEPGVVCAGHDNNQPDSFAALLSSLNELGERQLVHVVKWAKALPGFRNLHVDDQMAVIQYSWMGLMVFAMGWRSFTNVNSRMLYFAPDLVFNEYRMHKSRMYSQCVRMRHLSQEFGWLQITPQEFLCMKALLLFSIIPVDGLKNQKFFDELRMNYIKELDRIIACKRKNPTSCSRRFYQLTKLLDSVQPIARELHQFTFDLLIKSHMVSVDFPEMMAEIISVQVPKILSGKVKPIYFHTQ
Sequence (Q96SW2 whole entry, looked up): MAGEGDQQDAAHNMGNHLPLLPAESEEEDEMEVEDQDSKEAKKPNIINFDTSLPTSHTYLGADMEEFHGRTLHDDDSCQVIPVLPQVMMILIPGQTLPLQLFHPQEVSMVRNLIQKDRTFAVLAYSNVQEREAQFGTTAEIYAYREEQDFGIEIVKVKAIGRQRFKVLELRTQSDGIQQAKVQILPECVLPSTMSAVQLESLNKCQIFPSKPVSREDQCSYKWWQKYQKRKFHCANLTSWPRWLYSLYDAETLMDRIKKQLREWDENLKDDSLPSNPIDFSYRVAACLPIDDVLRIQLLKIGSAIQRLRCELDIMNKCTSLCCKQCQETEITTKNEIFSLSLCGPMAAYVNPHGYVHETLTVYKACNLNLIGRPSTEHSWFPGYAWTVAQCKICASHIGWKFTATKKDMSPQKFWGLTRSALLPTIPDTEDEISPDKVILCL
Test Description: Protac activity at CRBN/AR in human LNCaP cells assessed as AR degradation at 1 uM by Western blotting analysis relative to control
Type: cell-based
Endpoint Label: Activity (%)

Example entries begin here.
Molecule	Unit Text	Activity
CC1(C)[C@H](NC(=O)c2ccc(N3CCN(CCOC4CCN(C(=O)COc5ccc6nnn(C7CCC(=O)NC7=O)c(=O)c6c5)CC4)CC3)cc2)C(C)(C)[C@H]1Oc1ccc(C#N)c(Cl)c1 (stereo not given in full)	%	98
CC1(C)[C@H](NC(=O)c2ccc(N3CCN(CCOC4CCN(C(=O)C5CCN(c6ccc7nnn(C8CCC(=O)NC8=O)c(=O)c7c6)CC5)CC4)CC3)cc2)C(C)(C)[C@H]1Oc1ccc(C#N)c(Cl)c1 (stereo not given in full)	%	92
CC1(C)[C@H](NC(=O)c2ccc(N3CCN(CC4CCN(C(=O)CNc5ccc6nnn(C7CCC(=O)NC7=O)c(=O)c6c5)CC4)CC3)cc2)C(C)(C)[C@H]1Oc1ccc(C#N)c(Cl)c1 (stereo not given in full)	%	89

a. CC1(C)[C@H](NC(=O)c2ccc(N3CCN(CCOC4CCN(C(=O)C5CN(c6ccc7nnn(C8CCC(=O)NC8=O)c(=O)c7c6)C5)CC4)CC3)cc2)C(C)(C)[C@H]1Oc1ccc(C#N)c(Cl)c1 (stereo not given in full)
b. CC1(C)[C@H](NC(=O)c2ccc(N3CCN(CCC4CCN(c5cccc6nnn(C7CCC(=O)NC7=O)c(=O)c56)CC4)CC3)cc2)C(C)(C)[C@H]1Oc1ccc(C#N)c(Cl)c1 (stereo not given in full)
Field: lower recorded Activity (choose a or b ) Pick one and reply with its label.
b
